# System: Key Broadleaf Weed and Crop Species
# Run Description: Post-Emergent Test II (Table 5)
# Assay type: in vivo
# Reported Conditions: Euphorbia heterophylla, post-emergence, 336 h, EPHHL: wild poinsettia (Euphorbia heterophylla), application rate 140 (kg ai/ha; footnote: g ai/ha), read-out: Visual Growth Reduction (%) 14 Days After Application EPHHL
Quantity Measured: pest or weed control at 140 g/ha

[
  {
    "Compound": "COC(=O)c1nc(-c2ccc(OC)nc2)c(F)c(N)c1Cl [Compound 62]",
    "Recorded Measurement": "95 to 100%"
  },
  {
    "Compound": "Nc1c(F)c(-c2ccc(C3CC3)nc2)nc(C(=O)O)c1Cl [Compound 36]",
    "Recorded Measurement": "95 to 100%"
  },
  {
    "Compound": "COC(=O)c1nc(-c2ccc(Cl)nc2Cl)cc(N)c1Cl [Compound 15]",
    "Recorded Measurement": "0 to 29%"
  },
  {
    "Compound": "Nc1c(F)c(-c2ccc(C(F)(F)F)nc2)nc(C(=O)O)c1Cl [Compound 46]",
    "Recorded Measurement": "95 to 100%"
  },
  {
    "Compound": "Cc1ccc(-c2nc(C(=O)O)c(Cl)c(N)c2F)cn1 [Compound 85]",
    "Recorded Measurement": "0 to 29%"
  }
]

---

# Tested on: SETVI (green foxtail)
# Run Description: Post-Emergent Test III (Wheat and Barley)
# Format: in vivo, Setaria viridis
# Reported Conditions: Setaria viridis, post-emergence, 504 h; 35 g ai/ha, postemergence; read-out: Visual Growth Reduction (%) 21 Days After Application, SETVI
pest or weed control at 35 g/ha reference
Quantity Measured: pest or weed control at 35 g/ha

[
  {
    "Smiles Entry": "Nc1c(F)c(-c2ccc(C3CC3)nc2)nc(C(=O)O)c1Cl",
    "Recorded Measurement": "30 to 44%"
  },
  {
    "Smiles Entry": "Cc1c(-c2ccc(C(F)(F)F)nc2)nc(C(=O)O)c(Cl)c1N",
    "Recorded Measurement": "75 to 84%"
  },
  {
    "Smiles Entry": "Nc1c(F)c(-c2ccc(OC(F)F)nc2)nc(C(=O)O)c1Cl",
    "Recorded Measurement": "30 to 44%"
  },
  {
    "Smiles Entry": "COC(=O)c1nc(-c2ccc(C(F)(F)F)nc2)c(Cl)c(N)c1Cl",
    "Recorded Measurement": "0 to 29%"
  },
  {
    "Smiles Entry": "COC(=O)c1nc(-c2ccc(Cl)c(F)c2OC)cc(N)c1Cl",
    "Recorded Measurement": "0 to 29%"
  },
  {
    "Smiles Entry": "COC(=O)c1nc(-c2ccc(C3CC3)nc2)c(F)c(N)c1Cl",
    "Recorded Measurement": "30 to 44%"
  },
  {
    "Smiles Entry": "COC(=O)c1nc(-c2ccc(OC(F)F)nc2)c(F)c(N)c1Cl",
    "Recorded Measurement": "30 to 44%"
  },
  {
    "Smiles Entry": "COC(=O)c1nc(-c2ccc(Cl)c(F)c2OC)c(F)c(N)c1Cl",
    "Recorded Measurement": "0 to 29%"
  },
  {
    "Smiles Entry": "COC(=O)c1nc(-c2ccc(C(F)(F)F)nc2)c(F)c(N)c1Cl",
    "Recorded Measurement": "45 to 59%"
  },
  {
    "Smiles Entry": "Nc1c(Cl)c(C(=O)O)nc(-c2ccc(C(F)(F)F)nc2)c1Cl",
    "Recorded Measurement": "45 to 59%"
  }
]

Origin of values: patent US10765114B2
